Recorded IC50, one value per entry.
# target.system: HLA-A*02:06
# measurement.notes: IEDB peptide-MHC binding, purified MHC/competitive/radioactivity; bounds were set here for any values at or beyond the usual limits of such assays
# test.parameters: source organism: Mammarenavirus choriomeningitidis
Please reply with the bare figure in nM and do not write the unit itself.

Below, 4 sequences whose answers are already recorded.
> print(dat)
   sequence.string  recorded.number
1       ALMDCIIFES               13
2        FMLNVSYLC              932
3       MSCDDVVFGI              250
4       AVYNFATCGI               25

Entry FSLGAAVKA has what IC50? 327

Entry RNHLRDLMGV has what IC50? 107

Entry YCNYSKFWYL has what IC50? 1060

Entry LMDCIIFES has what IC50? 300

Entry LNMFVSDQV has what IC50? 4810

Entry ALMDLLMFS has what IC50? 14

Entry LSAEELMSL has what IC50? 66

---

# target.system: HLA-A*03:01
# measurement.notes: IEDB peptide-MHC binding, cellular MHC/competitive/fluorescence; bounds were set here for any values at or beyond the usual limits of such assays
# test.parameters: source organism: Hepatitis B virus
property.name: pIC50
Quick note: pIC50 values are minus log10 of concentrations in mol/L.

Below, 10 sequences whose answers are already recorded.
> print(dat)
    sequence.string  recorded.number
 1        WLSLLVPFV             4.39
 2        KVGAGAFGL             4.60
 3        GLLGWSPQA             4.86
 4       ILCWGELMTL             5.04
 5        YMDDVVLGA             4.16
 6       WMMWYWGPSL             4.81
 7        GLSRYVARV             5.14
 8       YQGMLPVCPL             4.62
 9        NLSWLSLDV             5.04
10        YLVSFGVWI             4.82

Next sequence, pIC50 to be filled in.
Entry FLLAQFTSAI has what pIC50? 4.95

---

# target.system: HLA-A*02:01
# measurement.notes: IEDB peptide-MHC binding, purified MHC/competitive/radioactivity; bounds were set here for any values at or beyond the usual limits of such assays
# test.parameters: source organism: Hepacivirus hominis
Flag rule - IC50 less than 50 nM flags criterion met; the remaining entries get criterion not met.

These solved cases illustrate the format of a correct answer.
> print(dat)
   sequence.string        label.value
1       VLMTHFFSVL  criterion not met
2       LIVMLLFAGV  criterion not met
3       MMMNWSPTTA      criterion met
4       LLSVGVGIYL      criterion met

Would you kindly look at the next entry?
Identify whether the sequence LLYFILFFVA records IC50 below 50 nM. criterion not met

---

# target.system: HLA-A*68:02
# measurement.notes: IEDB peptide-MHC binding, cellular MHC/competitive/fluorescence; bounds were set here for any values at or beyond the usual limits of such assays
# test.parameters: source organism: Vaccinia virus WR
property.name: pIC50
Quick note: pIC50 values are minus log10 of concentrations in mol/L.

> print(dat)
   sequence.string  target.system  recorded.number
1       SINITPDDGL    HLA-A*68:02             5.23

Entry PTNDIPSLFI has what pIC50? 4.61

Entry FLPQIGGEAI has what pIC50? 5.18

Entry ITFLRPVLKA has what pIC50? 4.67

Entry TAGNKVDVDI has what pIC50? 5.01

Entry VVIVENDNVI has what pIC50? 4.65

---

# target.system: HLA-A*02:01
# measurement.notes: IEDB peptide-MHC binding, cellular MHC/competitive/fluorescence; bounds were set here for any values at or beyond the usual limits of such assays
# test.parameters: source organism: Vaccinia virus WR
Flag rule - IC50 less than 20 µM flags Fulfilled; the remaining entries get Not fulfilled.

> print(dat)
   sequence.string  target.system    label.value
1       TTELNIVDEI    HLA-A*02:01  Not fulfilled
2        CIEYVTLNA    HLA-A*02:01      Fulfilled

Identify whether the sequence CTIVDSMII records IC50 below 20 µM. Fulfilled

Identify whether the sequence PTPKKMNIVT records IC50 below 20 µM. Not fulfilled

Identify whether the sequence ILANRDSTL records IC50 below 20 µM. Fulfilled

Identify whether the sequence IVDDDFISA records IC50 below 20 µM. Fulfilled

Identify whether the sequence AQSKSSLLHA records IC50 below 20 µM. Not fulfilled

Identify whether the sequence IIYNANKLI records IC50 below 20 µM. Fulfilled

Identify whether the sequence LIRPKILSM records IC50 below 20 µM. Not fulfilled

Identify whether the sequence LTKIDTTHV records IC50 below 20 µM. Fulfilled

Identify whether the sequence NITHTNITTL records IC50 below 20 µM. Fulfilled

Identify whether the sequence MLYQLLEAV records IC50 below 20 µM. Fulfilled

Identify whether the sequence TVSTIDGRIV records IC50 below 20 µM. Not fulfilled

Identify whether the sequence ITFLRPVLKA records IC50 below 20 µM. Not fulfilled

---

Recorded IC50, one value per entry.
# target.system: HLA-A*02:06
# measurement.notes: IEDB peptide-MHC binding, purified MHC/competitive/radioactivity; bounds were set here for any values at or beyond the usual limits of such assays
# test.parameters: source organism: Hepacivirus hominis
Please reply with the bare figure in nM and do not write the unit itself.

> print(dat)
   sequence.string  target.system  property.name  recorded.number
1       ILLSRCLWWT    HLA-A*02:06           IC50              246
2       MVLMTHFFSV    HLA-A*02:06           IC50               15
3        LLMALPHQA    HLA-A*02:06           IC50             1560
4       ALYGVWPLLL    HLA-A*02:06           IC50              166
5       RLIVYPDLGV    HLA-A*02:06           IC50              129

Next sequence, IC50 to be filled in.
Entry SMGNTLTCYV has what IC50? 205

---

# target.system: HLA-A*02:03
# measurement.notes: IEDB peptide-MHC binding, purified MHC/competitive/radioactivity; bounds were set here for any values at or beyond the usual limits of such assays
# test.parameters: source organism: Vaccinia virus WR
property.name: pIC50
Quick note: pIC50 values are minus log10 of concentrations in mol/L.

Below, 4 sequences whose answers are already recorded.
> print(dat)
   sequence.string  recorded.number
1        RLFTRCAVI             6.60
2       SLIYYQNEVT             6.22
3       STTENAAYQV             5.33
4       DIISSKQYPA             5.62

Entry LMSDNPKAST has what pIC50? 6.03

Entry YAGTIKESL has what pIC50? 5.60

Entry ILFILFFAYV has what pIC50? 6.44

Entry GMYYPTNDI has what pIC50? 8.06

Entry EVTPEYIKDL has what pIC50? 5.64

---

# target.system: HLA-A*02:01
# measurement.notes: IEDB peptide-MHC binding, cellular MHC/competitive/fluorescence; bounds were set here for any values at or beyond the usual limits of such assays
# test.parameters: source organism: Influenza A virus
property.name: IC50 (µM)
Please reply with the bare figure in µM and do not write the unit itself.

Below, 5 sequences whose answers are already recorded.
> print(dat)
   sequence.string  target.system  unit.string  recorded.number
1      QLVWMACHSAA    HLA-A*02:01           µM             11.4
2        GADINLMPI    HLA-A*02:01           µM             11.9
3      SAFDERRNRYL    HLA-A*02:01           µM             17.8
4         AAFEDLRV    HLA-A*02:01           µM             31.4
5         YLEKANKI    HLA-A*02:01           µM             12.3

Entry IVSSYVCSGL has what IC50? 6.2

Entry NVLSIAPI has what IC50? 8.52

Entry GLQSSDDFA has what IC50? 7.88

Entry TTQIIKLLPFA has what IC50? 5.95

Entry TVSSFQDIL has what IC50? 40.7

Entry NTSQRGIL has what IC50? 6.68

Entry PACVYGLA has what IC50? 68.7
